All values here come from patent US20230100838A1.

Target: K-Ras G12S (Homo sapiens, UniProt P01116, G12S)
Assay: K-Ras G12S cross-linking assay (comparable procedure, conjugate formation, TOF mass spectrometry)
Assay type: binding
Conditions: Table 5, percent covalently modified K-Ras by MS
endpoint.label: G12S x-linking (%)

Cc1cccc2cccc(N3CCc4c(nc(OC[C@@H]5CCCN5C)nc4N4CCC(N=C=NCc5cccs5)CC4)C3)c12 ... + (0 < x ≤ 10)
COCCN=C=N[C@H]1CCN(c2nc(OC[C@@H]3CCCN3C)nc3c2CCN(c2cccc4cccc(C)c24)C3)C1 ... ++ (10 < x ≤ 100)
Cc1cccc2cccc(N3CCc4c(nc(OC[C@@H]5CCCN5C)nc4N4CCC(N=C=NCCN(C)c5ccccc5)CC4)C3)c12 ... + (0 < x ≤ 10)
Cc1cccc2cccc(N3CCc4c(nc(OC[C@@H]5CCCN5C)nc4N4CCN(C(=O)[C@@H]5CN5)[C@@H](CC#N)C4)C3)c12 ... + (0 < x ≤ 10)
COc1ccc(CN=C=NC2CCN(c3nc(OC[C@@H]4CCCN4C)nc4c3CCN(c3cccc5cccc(C)c35)C4)CC2)c(OC)c1 ... + (0 < x ≤ 10)
Cc1cccc2cccc(N3CCc4c(nc(OC[C@@H]5CCCN5C)nc4N4CCC(N=C=NC5CCN(c6ccccc6)CC5)CC4)C3)c12 ... + (0 < x ≤ 10)
Cc1ccnc(C(C)C)c1-n1c(=O)nc(N2CCN(C(=O)[C@H]3CN3)C[C@@H]2C)c2cc(F)c(-c3c(O)cccc3F)nc21 ... + (0 < x ≤ 10)
Cc1cccc2cccc(N3CCc4c(nc(OC[C@@H]5CCCN5C)nc4N4CCC(N=C=NCCN(C)c5ccncn5)CC4)C3)c12 ... ++ (10 < x ≤ 100)

Exercise: What measured G12S x-linking (%) is associated with Cc1cccc2cccc(N3CCc4c(nc(OC[C@@H]5CCCN5C)nc4N4CCC(N=C=NCc5ccon5)CC4)C3)c12 on K-Ras G12S (Homo sapiens, UniProt P01116, G12S)?
Solution: ++ (10 < x ≤ 100)

Exercise: What measured G12S x-linking (%) is associated with COCCN=C=NCC1CCN(c2nc(OC[C@@H]3CCCN3C)nc3c2CCN(c2cccc4cccc(C)c24)C3)CC1 on K-Ras G12S (Homo sapiens, UniProt P01116, G12S)?
Solution: ++ (10 < x ≤ 100)

Exercise: What measured G12S x-linking (%) is associated with COCCN=C=N[C@H]1CC[C@H](N(C)c2nc(OC[C@@H]3CCCN3C)nc3c2CCN(c2cccc4cccc(C)c24)C3)CC1 on K-Ras G12S (Homo sapiens, UniProt P01116, G12S)?
Solution: + (0 < x ≤ 10)

Exercise: What measured G12S x-linking (%) is associated with COCCN=C=N[C@@H]1CCN(c2nc(OC[C@@H]3CCCN3C)nc3c2CCN(c2cccc4cccc(C)c24)C3)C1 on K-Ras G12S (Homo sapiens, UniProt P01116, G12S)?
Solution: ++ (10 < x ≤ 100)

Exercise: What measured G12S x-linking (%) is associated with COCCN=C=N[C@H]1CC[C@@H](N(C)c2nc(OC[C@@H]3CCCN3C)nc3c2CCN(c2cccc4cccc(C)c24)C3)CC1 on K-Ras G12S (Homo sapiens, UniProt P01116, G12S)?
Solution: ++ (10 < x ≤ 100)

Exercise: What measured G12S x-linking (%) is associated with Cc1cccc2cccc(N3CCc4c(nc(OC[C@@H]5CCCN5C)nc4N4CCC(N=C=NCCCN5CCOCC5)CC4)C3)c12 on K-Ras G12S (Homo sapiens, UniProt P01116, G12S)?
Solution: ++ (10 < x ≤ 100)
